For each record, write down the corresponding RP-LC retention time.
PROTOCOL_TEXT: gradient 5% acetonitrile 3 min, to 50% in 2 min, to 85% in 15 min, held 3 min, 100 µL/min
CONDITION_CONTEXT: column: Zorbax Extend-C18 2.1 x 50 mm; eluents: water / acetonitrile, 0.1% formic acid
Give bare numbers, in s.

Example compounds with recorded RP-LC retention time:
[[record]]
compound = "O=C(Cc1ccc(Cl)cc1)Nc1ccc(N2CCN(C3CCCC3)C2=O)nc1"
observed_result = 834

[[record]]
compound = "O=C(Nc1ccncc1)c1cc([N+](=O)[O-])ccc1Cl"
observed_result = 638

[[record]]
compound = "N#Cc1ccc(C(=O)N2CCCC2c2nc(-c3ccc(F)cc3F)no2)cc1 (stereo not given)"
observed_result = 921


List RP-LC retention time for every entry below, keeping the order given.
1. COc1ccc(NC(=O)c2cnc(N3CCN(c4ccc(OC)cc4)CC3)nc2N)cc1
2. Cc1scc2nc(C(=O)Nc3ccccc3)nc(N(C)C)c12
3. Cc1nc(CSc2cc(C)c3ccccc3n2)cs1

Reply:
[731, 658, 969]

For each of the items listed, what is its RP-LC retention time?
1. O=C(NCc1ccco1)C1CCN(c2ccc(=O)n(-c3cccc(Cl)c3)n2)CC1
2. CCc1ccc(CNC(=O)c2cc3c(=O)n(C)c(=O)n(C)c3s2)cc1
3. Cc1ccc(-c2nc3cnccn3c2NCCC(=O)NC2CCCC2)cc1

Reply:
785
830
696

Query: Recorded RP-LC retention time for NCCC1CCN(C(=O)Nc2ccc(F)cc2F)CC1 , please?
Reply: 585

* * *

PROTOCOL_TEXT: gradient 5% acetonitrile 3 min, to 50% in 2 min, to 85% in 15 min, held 3 min, 100 µL/min
CONDITION_CONTEXT: column: Zorbax Extend-C18 2.1 x 50 mm; eluents: water / acetonitrile, 0.1% formic acid
Provide the reported RP-LC retention time of each item.
Numbers only, in s.

Worked set:
[[record]]
molecule = "CC(C)Cn1c(=O)c(N2CCN(C(=O)CSc3ccccc3)CC2)nc2ccncc21"
quantity_measured = "RP-LC retention time"
observed_result = 724

[[record]]
molecule = "CC(=O)c1ccc(OC(=O)c2cc3c(C)nn(-c4cccc(F)c4)c3s2)cc1"
quantity_measured = "RP-LC retention time"
observed_result = 779

[[record]]
molecule = "CCC(C)n1c(C)cc(=O)n1C(C)CC (centres undefined)"
quantity_measured = "RP-LC retention time"
observed_result = 759

[[record]]
molecule = "CCn1cc(-c2ccccc2)cc1C(=O)NC(C)c1ccccn1 (centres undefined)"
quantity_measured = "RP-LC retention time"
observed_result = 749


Would you mind listing RP-LC retention time for each of the following molecules?
1. Cc1ccc(Nc2nc(-c3cc(C)c(C)cc3C)cs2)nc1
2. O=C(C1CCN(Cc2cc3ccccc3n2Cc2cccc(F)c2)CC1)N1CCCC1
3. CCn1ncc(Cl)c1C(=O)N1CCCC1c1ccc(F)cc1 (centres undefined)

Reply:
[1010, 721, 912]

Would you mind giving RP-LC retention time for every molecule in the list below?
1. Cn1ncn2cc(S(=O)(=O)N3CCN(c4ccccn4)CC3)cc2c1=O
2. CCC(C)NC(=O)C1CCCN(c2nnc(C)c3c(C)n(-c4ccc(Cl)cc4)nc23)C1 (centres undefined)
3. O=c1n(CC2CC2)nc2n1CCN(S(=O)(=O)Cc1ccccc1)CC2
4. CCN1c2ccccc2C(=O)NC12CCN(C(=O)Nc1ccccc1F)CC2

Reply:
1. 578
2. 746
3. 741
4. 748

For every item in the list below, what is its measured RP-LC retention time?
1. O=C(CN1C(=O)C(C(=O)N2CCCCCC2)Sc2ccccc21)NC1CCCCC1 (centres undefined)
2. Cc1ccc(CNC(=O)CCc2c(C)nn(-c3cc(N4CCCC4)ncn3)c2C)o1
3. CC1CN(CC(=O)N2CCN(c3ncccn3)CC2)c2ccccc2S1 (centres undefined)
4. CCc1nnc(-c2ccc3ccn(CC(=O)N4CCN(c5cccc(OC)c5)CC4)c3c2)o1
5. O=C(Cn1ncc2c(N3CCN(c4ccccn4)CC3)ncnc21)Nc1ccccc1Br
6. COc1ccc(NC(=O)C2CCN(S(=O)(=O)c3cc(C(=O)N4CCOCC4)cs3)CC2)cc1
7. Cc1cnc(C2CN(C(=O)C3(C)CCCCC3)C2)n1Cc1ccncc1
8. Cc1cc(NC(=O)Cn2nc(C(=O)N3CCCC3)c3ccccc32)ccc1Br

Reply:
1090
745
918
864
608
721
566
948

* * *

PROTOCOL_TEXT: gradient 5% acetonitrile 3 min, to 50% in 2 min, to 85% in 15 min, held 3 min, 100 µL/min
CONDITION_CONTEXT: column: Zorbax Extend-C18 2.1 x 50 mm; eluents: water / acetonitrile, 0.1% formic acid
QUANTITY_MEASURED: RP-LC retention time (s)
Answers are plain numbers, in s.

// solved cases for RP-LC retention time follow
[[record]]
compound = "c1cc(-c2nc(-c3ccc(-c4csc(C5CC5)n4)cc3)no2)ccn1"
observed_result = 1290

[[record]]
compound = "O=C1N(CN2CCN(c3ccccn3)CC2)c2ccccc2C12OCCCO2"
observed_result = 572

[[record]]
compound = "COC(=O)C1=CN(CC(=O)N2CCN(c3ccccc3F)CC2)S(=O)(=O)N=C1C"
observed_result = 908

[[record]]
compound = "Cc1ccc(C)c(N2CCN(C(=O)C3CCCN(C(=O)c4[nH]c(C)cc4C)C3)CC2)c1 (centres undefined)"
observed_result = 1010

[[record]]
compound = "Cc1ncsc1C1N(C2CCN(C(=O)c3cnccn3)CC2)C(=O)C12CCCC2 (centres undefined)"
observed_result = 654


Batch: RP-LC retention time for all items listed.
1. CC1CC(=O)c2cnc(N3CCN(Cc4ccc5c(c4)OCO5)CC3)nc2C1 (centres undefined)
2. O=C(Cn1cc(-c2ccccc2)c2ncnc(N3CCOCC3)c21)NC1CCCCC1
3. CCc1c(C)nc2nc(-c3ccco3)nn2c1N1CCN(c2ccccn2)CC1

Reply:
1. 632
2. 753
3. 616

Query: Form field: reported RP-LC retention time of Cc1ccc(CNC(=O)c2ccc(Cn3c(C(F)(F)F)nc4cccnc43)cc2)cc1
Reply: 943

* * *

I'd be grateful if you could share measured RP-LC retention time for these entries.
PROTOCOL_TEXT: gradient 5% acetonitrile 3 min, to 50% in 2 min, to 85% in 15 min, held 3 min, 100 µL/min
CONDITION_CONTEXT: column: Zorbax Extend-C18 2.1 x 50 mm; eluents: water / acetonitrile, 0.1% formic acid
Answers are plain numbers, in s.

# batch: return RP-LC retention time for each of the 3 molecules below
1. Cc1ccc(-c2cc(C(=O)NCCCn3ccnc3)c3ccccc3n2)s1
2. CC(C)C(=O)Nc1ccc2nc(N3CCN(Cc4ccccc4F)CC3)cc(C(=O)O)c2c1
3. Cc1cccc(C)c1Nc1c(-c2ccc(N3CCOCC3)cc2)nc2cnccn12

Reply:
[684, 585, 755]

* * *

PROTOCOL_TEXT: gradient 5% acetonitrile 3 min, to 50% in 2 min, to 85% in 15 min, held 3 min, 100 µL/min
CONDITION_CONTEXT: column: Zorbax Extend-C18 2.1 x 50 mm; eluents: water / acetonitrile, 0.1% formic acid
For each of the compounds below, state its RP-LC retention time.
Numbers only, in s.

Example entries begin here.
[[record]]
compound = "O=C(Cc1ccsc1)NCCC1CCN(C(=O)Nc2cc(F)cc(F)c2)CC1"
quantity_measured = "RP-LC retention time"
observed_result = 853

[[record]]
compound = "CN(c1nccn2c(=O)n(CC(=O)Nc3ccc(F)cc3)nc12)C1CCCCC1"
quantity_measured = "RP-LC retention time"
observed_result = 749

[[record]]
compound = "CCNC(=O)c1cc(C)nc2ccc(CC)cc12"
quantity_measured = "RP-LC retention time"
observed_result = 582

[[record]]
compound = "O=C(Nc1ccc2c(c1)OCCO2)N1CCC(OCCOCc2ccccc2)CC1"
quantity_measured = "RP-LC retention time"
observed_result = 853

[[record]]
compound = "CC1=C(c2ccc(C)c(C)c2)S(=O)(=O)N=C1N1CCCN(C(=O)c2ccccn2)CC1"
quantity_measured = "RP-LC retention time"
observed_result = 771

[[record]]
compound = "CCc1noc(NC(C)=O)c1-c1ccc(C)c(S(=O)(=O)NC2CCCC2)c1"
quantity_measured = "RP-LC retention time"
observed_result = 808

[[record]]
compound = "Cc1cc2nn(CC(=O)NCC3CCCO3)c(=O)n2c(Nc2ccccc2C)n1 (stereo not given)"
quantity_measured = "RP-LC retention time"
observed_result = 808

[[record]]
compound = "O=C(CN1CCN(c2ccc3c(c2)OCCO3)C1=O)NCc1nc(-c2ccccc2)no1"
quantity_measured = "RP-LC retention time"
observed_result = 745

[[record]]
compound = "CC(C)n1c(N2CCN(C(=O)C3CC(=O)N(CCc4ccccc4)C3)CC2)cc(=O)n(C(C)C)c1=O (stereo not given)"
quantity_measured = "RP-LC retention time"
observed_result = 786

[[record]]
compound = "CC(C)OCCCNC(=O)c1ccc2c(c1)nc1n2CCCCC1"
quantity_measured = "RP-LC retention time"
observed_result = 606


Record RP-LC retention time per entry; entries follow.
1. COc1ccc(Cn2cccc(S(=O)(=O)N3CCCC3)c2=O)cc1F
2. CCOC(=O)c1ccc(NC(=O)COc2cccc3ccc(N4CCOCC4)nc23)cc1
3. CNC1(C)[C@H]2CC[C@H](C2)C1(C)C (stereo not given in full)
4. O=C(NCCn1ncccc1=O)C1CCN(c2ccc(-c3ccc(F)cc3)nn2)CC1

Reply:
1: 843; 2: 654; 3: 606; 4: 560

Give RP-LC retention time for each of the items listed below.
1. COCCC1CCN(C(=O)c2ccc3nc[nH]c3c2)CC1
2. CCc1ccc(C(C)NC(=O)c2cccc(C3CCCN(C(=O)NC)C3)c2)cc1 (stereo not given)
3. CCCN1C(=O)c2c(C(=O)NCCc3ccccc3C)ncn2CC1(C)C(=O)NCCC(C)C (stereo not given)
4. COc1ccc(NC(=O)Cc2nnc(-c3ccc4ncccc4c3)o2)cc1Cl
5. CCc1csc(-c2ccc(N3CCN(C(=O)c4ccc(Cl)nc4)CC3)nc2)n1
6. Cc1cc(C)c(C(=O)N2CCC(CC(=O)NCc3cccc(Cl)c3)CC2)[nH]1

Reply:
[572, 888, 900, 728, 832, 804]
